Assay: Stability assay in 25% TIDE 2X detergent without DTPA (residual Abz-AGLA-Nba protease activity)
Type: physicochemical
Conditions: 180 min at 50°C; variant residual AGLA activity divided by wild-type residual activity
Readout Type: PI (relative stability), 25% TIDE 2X without DTPA

A056C: single-substitution thermolysin variant (SEQ ID NO:3 numbering) (protein, listed as Geobacillus caldoproteolyticus) ITGTSTVGVGRGVLGDQKNINTTYSTYYYLQDNTRGNGIFTYDAKYRTTLPGSLWCDADNQFFASYDAPAVDAHYYAGVTYDYYKNVHNRLSYDGNNAAIRSSVHYSQGYNNAFWNGSQMVYGDGDGQTFIPLSGGIDVVAHELTHAVTDYTAGLIYQNESGAINEAISDIFGTLVEFYANKNPDWEIGEDVYTPGISGDSLRSMSDPAKYGDPDHYSKRYTGTQDNGGVHINSGIINKAAYLISQGGTHYGVSVVGIGRDKLGKIFYRALTQYLTPTSNFSQLRAAAVQSATDLYGSTSQEVASVKQAFDAVGVK: 1.19

Continue with the next molecule.
For Y151C: single-substitution thermolysin variant (SEQ ID NO:3 numbering) (protein, listed as Geobacillus caldoproteolyticus) ITGTSTVGVGRGVLGDQKNINTTYSTYYYLQDNTRGNGIFTYDAKYRTTLPGSLWADADNQFFASYDAPAVDAHYYAGVTYDYYKNVHNRLSYDGNNAAIRSSVHYSQGYNNAFWNGSQMVYGDGDGQTFIPLSGGIDVVAHELTHAVTDCTAGLIYQNESGAINEAISDIFGTLVEFYANKNPDWEIGEDVYTPGISGDSLRSMSDPAKYGDPDHYSKRYTGTQDNGGVHINSGIINKAAYLISQGGTHYGVSVVGIGRDKLGKIFYRALTQYLTPTSNFSQLRAAAVQSATDLYGSTSQEVASVKQAFDAVGVK , what is its reported PI (relative stability), 25% TIDE 2X without DTPA?
1.09
